Recorded values, source patent US20260167731A1.

target: human CCR8 (human, UniProt P51685 1-355); experiment: cell-based or functional assay
measuredQuantity: hCCL1 (100 nM) residual response in %, Protocol #3, mAb 0.5 µg/mL (3.33 nM) (%)
Please give a number only; it is taken to be in %.

Example results:
INSERT INTO assay_data (binder, measured) VALUES
  ('anti-CCR8 mAb 2-2 (antibody, V domains shown) VH: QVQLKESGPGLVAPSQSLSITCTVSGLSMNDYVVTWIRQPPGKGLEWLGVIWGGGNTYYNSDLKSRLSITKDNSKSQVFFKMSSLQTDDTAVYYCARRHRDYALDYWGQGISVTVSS VL: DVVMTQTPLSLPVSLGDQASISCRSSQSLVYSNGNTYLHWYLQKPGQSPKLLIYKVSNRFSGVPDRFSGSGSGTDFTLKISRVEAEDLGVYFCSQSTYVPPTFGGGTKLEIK', 84),
  ('humanized anti-CCR8 mAb 2-15 (antibody, human IgG1, kappa, V domains shown, Humanized, human IgG1 / kappa) VH: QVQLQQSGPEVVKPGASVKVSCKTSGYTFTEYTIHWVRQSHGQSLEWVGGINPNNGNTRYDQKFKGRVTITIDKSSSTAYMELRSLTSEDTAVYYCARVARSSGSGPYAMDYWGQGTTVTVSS VL: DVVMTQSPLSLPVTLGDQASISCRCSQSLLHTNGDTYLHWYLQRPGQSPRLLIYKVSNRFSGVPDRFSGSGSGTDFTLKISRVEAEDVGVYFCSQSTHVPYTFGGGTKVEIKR', 52);

API: the following record is the query input.
What value of hCCL1 (100 nM) residual response in %, Protocol #3, mAb 0.5 µg/mL (3.33 nM) has been reported for the following binder? anti-CCR8 mAb 2-10 (antibody, V domains shown) VH: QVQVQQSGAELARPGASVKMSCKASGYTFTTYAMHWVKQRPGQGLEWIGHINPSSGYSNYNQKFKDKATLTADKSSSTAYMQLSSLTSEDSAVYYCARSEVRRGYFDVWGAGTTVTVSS VL: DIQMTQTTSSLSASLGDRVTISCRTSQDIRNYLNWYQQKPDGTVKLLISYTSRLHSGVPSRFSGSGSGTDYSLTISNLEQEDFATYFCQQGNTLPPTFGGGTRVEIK
62
